- tested_system: 6xHis-EphA2 ligand-binding domain
- Sequence (P29317 whole entry, the tested form may be a part): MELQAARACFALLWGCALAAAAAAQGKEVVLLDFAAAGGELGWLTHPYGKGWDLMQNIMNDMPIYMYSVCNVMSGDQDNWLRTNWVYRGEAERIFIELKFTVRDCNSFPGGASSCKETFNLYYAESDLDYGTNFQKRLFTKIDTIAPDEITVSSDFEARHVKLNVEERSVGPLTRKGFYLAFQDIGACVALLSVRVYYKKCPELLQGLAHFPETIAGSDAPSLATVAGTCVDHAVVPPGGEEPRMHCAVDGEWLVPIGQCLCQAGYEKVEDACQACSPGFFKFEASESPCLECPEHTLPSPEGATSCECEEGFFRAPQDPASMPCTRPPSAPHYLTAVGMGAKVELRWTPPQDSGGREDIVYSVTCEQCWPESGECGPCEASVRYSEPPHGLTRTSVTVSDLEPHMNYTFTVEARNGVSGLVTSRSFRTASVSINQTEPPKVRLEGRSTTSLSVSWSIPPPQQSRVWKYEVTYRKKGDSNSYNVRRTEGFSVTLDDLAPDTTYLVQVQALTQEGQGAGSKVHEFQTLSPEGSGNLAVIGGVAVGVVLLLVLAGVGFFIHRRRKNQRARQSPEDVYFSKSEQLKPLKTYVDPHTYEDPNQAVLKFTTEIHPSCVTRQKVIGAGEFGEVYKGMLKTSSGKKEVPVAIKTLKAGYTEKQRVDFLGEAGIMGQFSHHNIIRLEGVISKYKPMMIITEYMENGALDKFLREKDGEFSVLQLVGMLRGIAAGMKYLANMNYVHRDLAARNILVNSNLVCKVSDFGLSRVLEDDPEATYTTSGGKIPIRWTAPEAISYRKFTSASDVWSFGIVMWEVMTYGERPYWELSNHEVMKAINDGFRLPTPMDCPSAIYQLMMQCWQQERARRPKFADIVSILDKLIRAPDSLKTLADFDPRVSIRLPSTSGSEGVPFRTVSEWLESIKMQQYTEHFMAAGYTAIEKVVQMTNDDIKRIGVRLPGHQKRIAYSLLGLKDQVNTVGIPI
- procedure_summary: DELFIA displacement assay; earlier-generation biotinylated EphA2-binding reference peptide captured on streptavidin-coated 96-well plates; 6xHis-EphA2-LBD and Europium-conjugated anti-6xHis antibody added together with the test agent at various doses; residual fluorescence read after washing
Square brackets hold non-standard residues; d marks the D form. * marks the point of attachment. 4‑CH3‑Tyr = 4-CH3-Tyr: 4-methyl-tyrosine, a non-natural residue; 2Benzofuroyl(3-Me,6,7-diOMe) = COc1ccc2c(C)c(C(=O)*)oc2c1OC; Phe(4-Cl) = N[C@@H](Cc1ccc(Cl)cc1)C(=O)O; Hyp = O=C(O)[C@@H]1C[C@@H](O)CN1
measure: IC50

**Query** State the recorded IC50 for this entry: {2Benzofuroyl(3-Me,6,7-diOMe)}-DP[4‑CH3‑Tyr]A[Hyp]LRG[Phe(4-Cl)]PVA-NH2 [Scrambled-135H11]
**Result** > 10 µM
